measurement protocol: yeast display, Sf9 membrane polyspecificity reagent, FACS + sequencing; frameworks hold sequencing errors
reported endpoint: polyreactivity (PSR sort gate)

Consider the following illustrative entries.
sequence record: QVQLVESGGGLVQAGGSLRLSCAASGSIIGDNAMGWYRPAPGKERELVAAITGGDSTYYADSVKGRFTISRDNAKNTVYLQMNSLKPEDTAVYYCNADRFRGRTVDGDYWGQGTQVTVSS
polyreactivity (PSR sort gate): low polyreactivity
//
sequence record: QVQLVESGGGLVQAGGSLRLICAASGSIFDQNDMGWYRQAPGKERELVAAISSGSSTNYADSVKGRFTISRDNAKNTVYLQMNSLKAEDTAGYYCAVTSPYSQGYSFWGADSREYWGQGTQVTVSS
polyreactivity (PSR sort gate): low polyreactivity
//
sequence record: QVQLVESGGGLVQAGGSLRLSCAASGSILGDYGMGWYRQAPGKERELVAAITWNGDSTYYADSVKGRFTISRDNAKNTVYLQMNSLKPEDTAVYYCAADLQDYKYYPWYGYWGQGTQVTVSS
polyreactivity (PSR sort gate): low polyreactivity
//
sequence record: QVQLVESGGGLVQAGGSLRLSCAASGRIFRGYTMGWYRTAPGKERELVAAISRSTGSTNYADSVKGRFTISRDNAKNTVYLQMNSLKPEDTAVYYCAAGPVDYGDWYYDVWFDYWGQGTQVTVSS
polyreactivity (PSR sort gate): high polyreactivity
//
sequence record: QVQLVESGGGLVQAGGSLSLSCAATGSIFPPNAMGWYRQAPGKEREFVASITSSGGITNYADSVKGRFTISRDTAKNTVYLQMNSLKTEDTAVYYCAAKYYGGTRFRPYGYWGQGTQVTVSS
polyreactivity (PSR sort gate): high polyreactivity
//
sequence record: QDQLVESGGGLVQAGGSLRLSCAASGFTFSWNAMGWYRQSPGKERQLVAAISWSGGSTYYADSVKGRFTISRDNAKNTVYLQMNSLKPEDTAVYYCNAGSTRAASRVRYDYWGQGTQVTVSS
polyreactivity (PSR sort gate): high polyreactivity

Asked: # polyreactivity (PSR sort gate) lookup, item QFQLVESGGGLVQAGVSLRLSCAASGSIILVYAMGLYIQATGKETELVPAITTRGSSTYYADSVKGRFKISRDNAKNTYYLQMNSLKPEDTEVYYCAKEFPGTQGRGVTGFSGTALGYWGQGTKVTVSS
Given back: low polyreactivity

Asked: # polyreactivity (PSR sort gate) lookup, item QVQLVYSGGGLVQAGGSLRLSCAASGRTFSWYAMGWYRTAPGKESELVAAITWSGGSTYYADSVKGRFTISRDNAKNTVYLEMNSLKPEDTAVYFCNALRYSNRRYYSTGPHDYWGQGTHVTVSS
Given back: high polyreactivity

Asked: # polyreactivity (PSR sort gate) lookup, item QVQLVESGGGLVQAGGSLRLSCAASGITFPYYAMGWYRQAPGKERELVAAISLSGGTTYYADSVKGRFTISRDNAKNTVYLQMNSLKPDDTAVYYCAARSSKFVTSNRYDYWGQGTQVTVSS
Given back: high polyreactivity

The measurements presented in this section are drawn from the nanobody polyreactivity screen of Harvey et al. (2022).
